The reported measurements were obtained from the supplement of paper PMC10307832.

Test system: NCI-H23
experiment-description: relative viability (nuclei count vs DMSO), 5 days (fraction); higher = more cells survive
condition-parameters: first compound 0.1265 µM

compound | relative viability
COc1cc(N2CCC(C(N)=O)CC2)ccc1Nc1nc(N)c(Cl)c(Nc2ccccc2S(=O)(=O)C(C)C)n1 [HG-5-88-01] + Cc1nc(Nc2ncc(C(=O)Nc3c(C)cccc3Cl)s2)cc(N2CCN(CCO)CC2)n1 [Dasatinib] (partner 0.075 µM) | 0.84
COc1cc(N2CCC(C(N)=O)CC2)ccc1Nc1nc(N)c(Cl)c(Nc2ccccc2S(=O)(=O)C(C)C)n1 [HG-5-88-01] + CC(=O)c1c(C)c2cnc(Nc3ccc(N4CCNCC4)cn3)nc2n(C2CCCC2)c1=O [Palbociclib] (partner 0.5 µM) | 0.549
Clc1ccc(Nc2nnc(Cc3ccncc3)c3ccccc23)cc1 [Vatalanib] + Cc1nc(Nc2ncc(C(=O)Nc3c(C)cccc3Cl)s2)cc(N2CCN(CCO)CC2)n1 [Dasatinib] (partner 0.075 µM) | 0.73
COc1cc(N2CCC(C(N)=O)CC2)ccc1Nc1nc(N)c(Cl)c(Nc2ccccc2S(=O)(=O)C(C)C)n1 [HG-5-88-01] + C[C@@H](Oc1cc(-c2cnn(C3CCNCC3)c2)cnc1N)c1c(Cl)ccc(F)c1Cl [Crizotinib] (partner 1 µM) | 0.43
COc1cc(N2CCC(C(N)=O)CC2)ccc1Nc1nc(N)c(Cl)c(Nc2ccccc2S(=O)(=O)C(C)C)n1 [HG-5-88-01] + CC(=O)Nc1cccc(-n2c(=O)n(C3CC3)c(=O)c3c(Nc4ccc(I)cc4F)n(C)c(=O)c(C)c32)c1 [Trametinib] (partner 0.02 µM) | 0.336
C[C@@H]1CN(CC(=O)Nc2ccc3c(c2)Cc2cccc(-c4cc(=O)cc(N5CCOCC5)o4)c2S3)C[C@H](C)O1 + CC(C)C[C@H](NC(=O)[C@H](Cc1ccccc1)NC(=O)c1cnccn1)B(O)O [Bortezomib] (partner 0.002 µM) | 1.21
C[C@@H]1CN(CC(=O)Nc2ccc3c(c2)Cc2cccc(-c4cc(=O)cc(N5CCOCC5)o4)c2S3)C[C@H](C)O1 + CC(=O)c1c(C)c2cnc(Nc3ccc(N4CCNCC4)cn3)nc2n(C2CCCC2)c1=O [Palbociclib] (partner 0.5 µM) | 0.538
COc1cc(N2CCC(C(N)=O)CC2)ccc1Nc1nc(N)c(Cl)c(Nc2ccccc2S(=O)(=O)C(C)C)n1 [HG-5-88-01] + C[C@]1(O)C[C@@H](c2nc(-c3ccc4ccc(-c5ccccc5)nc4c3)c3c(N)nccn32)C1 [Linsitinib] (partner 1 µM) | 0.621
Clc1ccc(Nc2nnc(Cc3ccncc3)c3ccccc23)cc1 [Vatalanib] + CC(=O)c1c(C)c2cnc(Nc3ccc(N4CCNCC4)cn3)nc2n(C2CCCC2)c1=O [Palbociclib] (partner 0.5 µM) | 0.435
COc1cc(N2CCC(C(N)=O)CC2)ccc1Nc1nc(N)c(Cl)c(Nc2ccccc2S(=O)(=O)C(C)C)n1 [HG-5-88-01] + NC(=O)Nc1cc(-c2cccc(F)c2)sc1C(=O)N[C@H]1CCCNC1 [AZD7762] (partner 0.2 µM) | 0.27
C[C@@H]1CN(CC(=O)Nc2ccc3c(c2)Cc2cccc(-c4cc(=O)cc(N5CCOCC5)o4)c2S3)C[C@H](C)O1 + Nc1nc2[nH]cc(CCc3ccc(C(=O)N[C@@H](CCC(=O)O)C(=O)O)cc3)c2c(=O)[nH]1 [Pemetrexed] (partner 0.2 µM) | 0.696
C[C@@H]1CN(CC(=O)Nc2ccc3c(c2)Cc2cccc(-c4cc(=O)cc(N5CCOCC5)o4)c2S3)C[C@H](C)O1 + N=C(N)NC(=N)NCCc1ccccc1 [Phenformin] (partner 250 µM) | 0.762
Clc1ccc(Nc2nnc(Cc3ccncc3)c3ccccc23)cc1 [Vatalanib] + C[C@@H](Oc1cc(-c2cnn(C3CCNCC3)c2)cnc1N)c1c(Cl)ccc(F)c1Cl [Crizotinib] (partner 1 µM) | 0.49
COc1cc(N2CCC(C(N)=O)CC2)ccc1Nc1nc(N)c(Cl)c(Nc2ccccc2S(=O)(=O)C(C)C)n1 [HG-5-88-01] + Cc1nc(NC(=O)N2CCC[C@H]2C(N)=O)sc1-c1ccnc(C(C)(C)C(F)(F)F)c1 [Alpelisib] (partner 2 µM) | 0.738
Clc1ccc(Nc2nnc(Cc3ccncc3)c3ccccc23)cc1 [Vatalanib] + NC(=O)Nc1cc(-c2cccc(F)c2)sc1C(=O)N[C@H]1CCCNC1 [AZD7762] (partner 0.2 µM) | 0.229

* * *

System: NCI-H1651
experiment-description: relative viability (nuclei count vs DMSO), 5 days (fraction); higher = more cells survive
condition-parameters: first compound 0.3162 µM
experimental-readout: relative viability

compound | target-of-assay | experimental-readout | assay-value
CC(C)Oc1cc(Nc2nc(N[C@@H](C)c3ccc(F)cn3)ncc2Cl)n[nH]1 [AZ23] + Cc1nc(NC(=O)N2CCC[C@H]2C(N)=O)sc1-c1ccnc(C(C)(C)C(F)(F)F)c1 [Alpelisib] (partner 2 µM) | NCI-H1651 | relative viability | 1.16
CC(C)Oc1cc(Nc2nc(N[C@@H](C)c3ccc(F)cn3)ncc2Cl)n[nH]1 [AZ23] + CC1(C)CCC(c2ccc(Cl)cc2)=C(CN2CCN(c3ccc(C(=O)NS(=O)(=O)c4ccc(N[C@H](CCN5CCOCC5)CSc5ccccc5)c(S(=O)(=O)C(F)(F)F)c4)cc3)CC2)C1 [Navitoclax] (partner 0.5 µM) | NCI-H1651 | relative viability | 1.11
CC(C)Oc1cc(Nc2nc(N[C@@H](C)c3ccc(F)cn3)ncc2Cl)n[nH]1 [AZ23] + O=C(CCCCCCC(=O)Nc1ccccc1)NO [Vorinostat] (partner 1 µM) | NCI-H1651 | relative viability | 0.584
CC(C)Oc1cc(Nc2nc(N[C@@H](C)c3ccc(F)cn3)ncc2Cl)n[nH]1 [AZ23] + Cc1cc(Nc2cc(N3CCN(C)CC3)nc(Sc3ccc(NC(=O)C4CC4)cc3)n2)n[nH]1 [Tozasertib] (partner 0.1 µM) | NCI-H1651 | relative viability | 0.71
CC(C)Oc1cc(Nc2nc(N[C@@H](C)c3ccc(F)cn3)ncc2Cl)n[nH]1 [AZ23] + C[C@]1(O)C[C@@H](c2nc(-c3ccc4ccc(-c5ccccc5)nc4c3)c3c(N)nccn32)C1 [Linsitinib] (partner 1 µM) | NCI-H1651 | relative viability | 1.18

* * *

Test system: NCI-H1975
experiment-description: relative viability (nuclei count vs DMSO), 5 days (fraction); higher = more cells survive
condition-parameters: first compound 1.265 µM
// reported relative viability per item
experimental-readout: relative viability

compound | assay-value
Clc1ccc(Nc2nnc(Cc3ccncc3)c3ccccc23)cc1 [Vatalanib] + CCNC(=O)c1noc(-c2cc(C(C)C)c(O)cc2O)c1-c1ccc(CN2CCOCC2)cc1 [Luminespib] (partner 0.01 µM) | 0.29
Clc1ccc(Nc2nnc(Cc3ccncc3)c3ccccc23)cc1 [Vatalanib] + COc1cccc2cc(-c3nc([C@H]4CC[C@H](C(=O)O)CC4)n4ncnc(N)c34)[nH]c12 [OSI-027] (partner 0.5 µM) | 0.568
COc1cc(N2CCC(C(N)=O)CC2)ccc1Nc1nc(N)c(Cl)c(Nc2ccccc2S(=O)(=O)C(C)C)n1 [HG-5-88-01] + N=C(N)NC(=N)NCCc1ccccc1 [Phenformin] (partner 250 µM) | 0.365
Clc1ccc(Nc2nnc(Cc3ccncc3)c3ccccc23)cc1 [Vatalanib] + C[C@@H](Oc1cc(-c2cnn(C3CCNCC3)c2)cnc1N)c1c(Cl)ccc(F)c1Cl [Crizotinib] (partner 1 µM) | 0.845
Clc1ccc(Nc2nnc(Cc3ccncc3)c3ccccc23)cc1 [Vatalanib] + COc1cc2c(Oc3ccc(NC(=O)C4(C(=O)Nc5ccc(F)cc5)CC4)cc3F)ccnc2cc1OCCCN1CCOCC1 [Foretinib] (partner 0.25 µM) | 0.866
Clc1ccc(Nc2nnc(Cc3ccncc3)c3ccccc23)cc1 [Vatalanib] + CS(=O)(=O)N1CCN(Cc2cc3nc(-c4cccc5[nH]ncc45)nc(N4CCOCC4)c3s2)CC1 [Pictilisib] (partner 1 µM) | 0.258

* * *

Tested on: SK-LU-1
experiment-description: relative viability (nuclei count vs DMSO), 5 days (fraction); higher = more cells survive
condition-parameters: first compound 0.1265 µM

compound | relative viability
C[C@@H]1CN(CC(=O)Nc2ccc3c(c2)Cc2cccc(-c4cc(=O)cc(N5CCOCC5)o4)c2S3)C[C@H](C)O1 + Cc1nc(NC(=O)N2CCC[C@H]2C(N)=O)sc1-c1ccnc(C(C)(C)C(F)(F)F)c1 [Alpelisib] (partner 2 µM) | 1.05
Clc1ccc(Nc2nnc(Cc3ccncc3)c3ccccc23)cc1 [Vatalanib] + CC(=O)Nc1cccc(-n2c(=O)n(C3CC3)c(=O)c3c(Nc4ccc(I)cc4F)n(C)c(=O)c(C)c32)c1 [Trametinib] (partner 0.02 µM) | 0.54
Clc1ccc(Nc2nnc(Cc3ccncc3)c3ccccc23)cc1 [Vatalanib] + Cc1nc(NC(=O)N2CCC[C@H]2C(N)=O)sc1-c1ccnc(C(C)(C)C(F)(F)F)c1 [Alpelisib] (partner 2 µM) | 0.983
COc1cc(N2CCC(C(N)=O)CC2)ccc1Nc1nc(N)c(Cl)c(Nc2ccccc2S(=O)(=O)C(C)C)n1 [HG-5-88-01] + Nc1nc2[nH]cc(CCc3ccc(C(=O)N[C@@H](CCC(=O)O)C(=O)O)cc3)c2c(=O)[nH]1 [Pemetrexed] (partner 0.2 µM) | 0.956
